Biological target: UniProtKB P10144
Test: Inhibition of fibronectin cleavage by GzmB
Type: biochemical
Conditions: 50 uM inhibitor, 20 nM granzyme B, read-out: Percent Inhibition at Inhibitor Concentration 50 uM
quantityName: inhibition at 50 µM (%)

CC[C@H](C)[C@H](NC(=O)Cc1ccccc1)C(=O)N[C@@H](CCC(=O)O)C(=O)N1c2ncccc2C[C@H]1C(=O)NCc1nn[nH]n1 [Example C9] : 91
CC[C@H](C)[C@H](NC(=O)Cc1nn[nH]n1)C(=O)NCC(=O)N1c2ncccc2C[C@H]1C(=O)NCc1nn[nH]n1 [Example A1] : 88
CC(C)[C@H](NC(=O)CCC(=O)O)C(=O)N[C@@H](CCC(=O)O)C(=O)N1c2ncccc2C[C@H]1C(=O)NCc1nn[nH]n1 [Example C17] : 94
CC[C@H](C)[C@H](NC(=O)CCC(=O)O)C(=O)N[C@@H](CCC(=O)O)C(=O)N1c2ncccc2C[C@H]1C(=O)NCc1nn[nH]n1 [Example C4] : 98

###

Target: GzmB (Homo sapiens)
Sequence (P10144 21-247): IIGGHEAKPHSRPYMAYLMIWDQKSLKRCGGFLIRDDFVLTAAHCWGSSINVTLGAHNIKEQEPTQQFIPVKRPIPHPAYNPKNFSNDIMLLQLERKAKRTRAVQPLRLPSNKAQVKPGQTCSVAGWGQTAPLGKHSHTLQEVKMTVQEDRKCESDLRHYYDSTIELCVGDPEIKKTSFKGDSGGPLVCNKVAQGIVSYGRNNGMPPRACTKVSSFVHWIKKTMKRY
Assay: Inhibition of fibronectin cleavage by GzmB
Assay type: biochemical
Settings: 0.62 uM inhibitor, 20 nM granzyme B, read-out: Percent Inhibition at Inhibitor Concentration 0.62 uM
quantityName: inhibition at 0.62 µM (%)

CC[C@H](C)[C@H](NC(=O)CCC(=O)O)C(=O)N[C@@H](CCC(=O)O)C(=O)N1c2ncccc2C[C@H]1C(=O)NCc1nn[nH]n1 : 45
CC[C@H](C)[C@H](NC(=O)Cc1ccccc1)C(=O)N[C@@H](CCC(=O)O)C(=O)N1c2ncccc2C[C@H]1C(=O)NCc1nn[nH]n1 : 58
CC[C@H](C)[C@H](NC(=O)Cc1nn[nH]n1)C(=O)NCC(=O)N1c2ncccc2C[C@H]1C(=O)NCc1nn[nH]n1 : 66
CC(C)[C@H](NC(=O)CCC(=O)O)C(=O)N[C@@H](CCC(=O)O)C(=O)N1c2ncccc2C[C@H]1C(=O)NCc1nn[nH]n1 : 56

###

Molecular target: GzmB (Homo sapiens)
Assay: Inhibition of fibronectin cleavage by GzmB
Type: biochemical
Settings: 5.56 uM inhibitor, 20 nM granzyme B, read-out: Percent Inhibition at Inhibitor Concentration 5.56 uM
quantityName: inhibition at 5.56 µM (%)

CC[C@H](C)[C@H](NC(=O)Cc1ccccc1)C(=O)N[C@@H](CCC(=O)O)C(=O)N1c2ncccc2C[C@H]1C(=O)NCc1nn[nH]n1 : 81
CC[C@H](C)[C@H](NC(=O)CCC(=O)O)C(=O)N[C@@H](CCC(=O)O)C(=O)N1c2ncccc2C[C@H]1C(=O)NCc1nn[nH]n1 : 79
CC[C@H](C)[C@H](NC(=O)Cc1nn[nH]n1)C(=O)NCC(=O)N1c2ncccc2C[C@H]1C(=O)NCc1nn[nH]n1 : 82
CC(C)[C@H](NC(=O)CCC(=O)O)C(=O)N[C@@H](CCC(=O)O)C(=O)N1c2ncccc2C[C@H]1C(=O)NCc1nn[nH]n1 : 77
